System: RD-ES
Test: relative viability vs DMSO control (72 h) (fraction); higher = more viable cells
Conditions: 0.04115 µM
List of relative viability values.

// solved cases for relative viability follow
COMPOUND: CN1CC[C@@H](NC(=O)Nc2ccc(C#N)cc2)C[C@@H]1c1nc2ccccc2[nH]1 [Glasdegib]
relative viability: 0.923
//
COMPOUND: C[C@]12O[C@H](C[C@]1(O)CO)n1c3ccccc3c3c4c(c5c6ccccc6n2c5c31)CNC4=O [Lestaurtinib]
relative viability: 0.804
//
COMPOUND: CC[C@@H]1CN(C(=O)NCC(F)(F)F)C[C@@H]1c1cnc2cnc3[nH]ccc3n12 [Upadacitinib]
relative viability: 0.99
//
COMPOUND: CC(C)(O)CNc1nc(Nc2ccnc(C(F)(F)F)c2)nc(-c2cccc(C(F)(F)F)n2)n1 [Enasidenib]
relative viability: 0.986
//
COMPOUND: CC(C)(C)c1nc(-c2cccc(NS(=O)(=O)c3c(F)cccc3F)c2F)c(-c2ccnc(N)n2)s1 [Dabrafenib]
relative viability: 0.872

Q: // fetch relative viability given entry `CNC(=O)c1nnc(NC(=O)C2CC2)cc1Nc1cccc(-c2ncn(C)n2)c1OC`
A: 1.02

Q: Note down relative viability recorded for C[C@H](Nc1ncnc2nc[nH]c12)c1cc2cccc(Cl)c2c(=O)n1-c1ccccc1 [Duvelisib]
A: 0.996

Q: # return recorded relative viability for input CCc1cnn2c(NCc3ccc[n+]([O-])c3)cc(N3CCCC[C@H]3CCO)nc12 [Dinaciclib]
A: 0.0429

Q: Name the recorded relative viability of the compound listed here: CN1CCN(c2ccc(C(=O)Nc3n[nH]c4ccc(Cc5cc(F)cc(F)c5)cc34)c(NC3CCOCC3)c2)CC1 [Entrectinib]
A: 0.997

Q: Output relative viability of COC(=O)[C@@]1(O)C[C@H]2O[C@]1(C)n1c3ccccc3c3c4c(c5c6ccccc6n2c5c31)C(=O)NC4 [K-252a]
A: 0.797

Q: For the compound Cn1ncnc1[C@H]1c2n[nH]c(=O)c3cc(F)cc(c23)N[C@@H]1c1ccc(F)cc1 [Talazoparib] , report relative viability.
A: 0.191

Q: // fetch relative viability given entry Cc1ccc(Nc2nccc(N(C)c3ccc4c(C)n(C)nc4c3)n2)cc1S(N)(=O)=O [Pazopanib]
A: 0.975

Q: Output measured relative viability for this item: CC1(COc2ccc3c(c2)ncn3-c2ccc3cccc(N4CCC(N)CC4)c3n2)COC1 [Crenolanib]
A: 0.969

###

System: VA-ES-BJ
Experiment: relative viability vs DMSO control (72 h) (fraction); higher = more viable cells
Settings: 0.00457 µM
The following compounds are shown together with reported relative viability values.

Take a look at these entries with their results.
COMPOUND: CNC(=O)c1nnc(NC(=O)C2CC2)cc1Nc1cccc(-c2ncn(C)n2)c1OC
REPORTED_METRIC: relative viability
RESULT: 1.04
//
COMPOUND: CO[C@H]1C[C@@H]2CC[C@@H](C)[C@@](O)(O2)C(=O)C(=O)N2CCCC[C@H]2C(=O)O[C@H]([C@H](C)C[C@@H]2CC[C@@H](OCCO)[C@H](OC)C2)CC(=O)[C@H](C)/C=C(\C)[C@@H](O)[C@@H](OC)C(=O)[C@H](C)C[C@H](C)/C=C/C=C/C=C/1C
REPORTED_METRIC: relative viability
RESULT: 0.604

Q: # lookup: VA-ES-BJ relative viability, key = O=C1NC(=O)[C@@H](c2cn3c4c(cccc24)CCC3)[C@@H]1c1c[nH]c2ccccc12 [Tivantinib]
A: 1.03

Q: Enter relative viability (test system VA-ES-BJ) for `CNC(=O)c1ccccc1Sc1ccc2c(/C=C/c3ccccn3)n[nH]c2c1`
A: 1.12

Q: State relative viability (VA-ES-BJ) of `CN1CCN(c2ccc(C(=O)Nc3n[nH]c4ccc(Cc5cc(F)cc(F)c5)cc34)c(NC3CCOCC3)c2)CC1` .
A: 1.05

Q: Give relative viability for this entry on VA-ES-BJ: `COC(=O)N[C@@H](C)CNc1nccc(-c2cn(C(C)C)nc2-c2cc(Cl)cc(NS(C)(=O)=O)c2F)n1`
A: 1.03

###

Test system: RD-ES
Assay: relative viability vs DMSO control (72 h) (fraction); higher = more viable cells
Settings: 1.111 µM
Examples of molecules with documented relative viability follow.
The answer should be a number; do not append a unit.

Example cases with answers are listed next.
MOLECULE: O=C(Nc1nc2cccc(-c3ccc(CN4CCS(=O)(=O)CC4)cc3)n2n1)C1CC1 [Filgotinib]
ASSAYED_TARGET: RD-ES
relative viability: 0.978

MOLECULE: CN1CC[C@@H](NC(=O)Nc2ccc(C#N)cc2)C[C@@H]1c1nc2ccccc2[nH]1 [Glasdegib]
ASSAYED_TARGET: RD-ES
relative viability: 0.924

MOLECULE: CCN1C(=O)N(c2c(F)c(OC)cc(OC)c2F)Cc2cnc3[nH]c(CN4CCOCC4)cc3c21 [Pemigatinib]
ASSAYED_TARGET: RD-ES
relative viability: 0.859

MOLECULE: Cc1cccc(-c2nn3c(c2-c2ccnc4ccc(C(N)=O)cc24)CCC3)n1 [Galunisertib]
ASSAYED_TARGET: RD-ES
relative viability: 0.913

MOLECULE: CC1(C)CC=C(c2nc(C3CC(C)(C)OC(C)(C)C3)ccc2NC(=O)c2nc(C#N)c[nH]2)CC1 [Edicotinib]
ASSAYED_TARGET: RD-ES
relative viability: 1.01

Q: Report relative viability, nothing else, for this molecule: CC(C)Oc1ccc(-c2nn([C@@H](C)c3oc4ccc(F)cc4c(=O)c3-c3cccc(F)c3)c3ncnc(N)c23)cc1F [Umbralisib]
A: 0.994

Q: Specify reported relative viability for the molecule shown: COc1cc(Nc2ncc(F)c(Nc3ccc4c(n3)N(COP(=O)(O)O)C(=O)C(C)(C)O4)n2)cc(OC)c1OC [Fostamatinib]
A: 0.715

###

Tested on: RD-ES
Test: relative viability vs DMSO control (72 h) (fraction); higher = more viable cells
Conditions: 3.333 µM
# relative viability values compiled below
Please reply with the value in numeric form only.

Q: Specify measured relative viability for `CC1(COc2ccc3c(c2)ncn3-c2ccc3cccc(N4CCC(N)CC4)c3n2)COC1` .
A: 0.359

Q: Check the records and state relative viability for `COC(=O)N[C@@H](C)CNc1nccc(-c2cn(C(C)C)nc2-c2cc(Cl)cc(NS(C)(=O)=O)c2F)n1`
A: 0.462

Q: Output relative viability of `CCN1C(=O)N(c2c(F)c(OC)cc(OC)c2F)Cc2cnc3[nH]c(CN4CCOCC4)cc3c21`
A: 0.721

Q: Give me measured relative viability, please, for this compound: `CN1CCN(c2ccc(C(=O)Nc3n[nH]c4ccc(Cc5cc(F)cc(F)c5)cc34)c(NC3CCOCC3)c2)CC1`
A: 0.552

Q: Quick one: give measured relative viability for `O=C(Nc1ccc(OC(F)(F)Cl)cc1)c1cnc(N2CC[C@@H](O)C2)c(-c2cc[nH]n2)c1`
A: 0.849

Q: Return reported relative viability. Input compound: `Cc1cc2cc(Oc3ccnc(Nc4cccc(CS(=O)(=O)NCCN(C)C)c4)n3)ccc2[nH]1`
A: 0.87

Q: Note relative viability for the compound shown: `CC(C)NC[C@@H](C(=O)N1CCN(c2ncnc3c2[C@H](C)C[C@H]3O)CC1)c1ccc(Cl)cc1`
A: 0.52

###

In this section we review reported relative viability values for a set of molecules.
Test system: SYO-1
Assay: relative viability vs DMSO control (72 h) (fraction); higher = more viable cells
Conditions: 0.01372 µM
# output: bare number, no unit

STRUCTURE_SMILES_STRING: Clc1ccc(Nc2nnc(Cc3ccncc3)c3ccccc23)cc1
REPORTED_METRIC: relative viability
RESULT: 0.929
--
STRUCTURE_SMILES_STRING: O=c1sn(-c2cccc3ccccc23)c(=O)n1Cc1ccccc1
REPORTED_METRIC: relative viability
RESULT: 0.956
--
STRUCTURE_SMILES_STRING: COCCNc1cc(NC(=O)N2CCCc3cc(CN4CCN(C)CC4=O)c(C=O)nc32)ncc1C#N
REPORTED_METRIC: relative viability
RESULT: 0.914
--
STRUCTURE_SMILES_STRING: C[C@H](Nc1ncnc2nc[nH]c12)c1cc2cccc(Cl)c2c(=O)n1-c1ccccc1
REPORTED_METRIC: relative viability
RESULT: 0.991
--
STRUCTURE_SMILES_STRING: CCC(=O)N1CC[C@H](Nc2ncnc3c2CN(c2cnc(OC)c(C(F)(F)F)c2)CC3)C1
REPORTED_METRIC: relative viability
RESULT: 0.947
--
STRUCTURE_SMILES_STRING: O=C(Nc1nc2cccc(-c3ccc(CN4CCS(=O)(=O)CC4)cc3)n2n1)C1CC1
REPORTED_METRIC: relative viability
RESULT: 0.907
--
STRUCTURE_SMILES_STRING: CCN(CC)CCNC(=O)c1c(C)[nH]c(/C=C2\C(=O)Nc3ccc(F)cc32)c1C
REPORTED_METRIC: relative viability
RESULT: 0.706

Q: Return reported relative viability for target or system SYO-1, item `N#CCNC(=O)c1ccc(-c2ccnc(Nc3ccc(N4CCOCC4)cc3)n2)cc1` .
A: 0.985
